- Target Of Assay: GST-JAK2(808-1132) (Homo sapiens, UniProt O60674)
- Construct: GST-JAK2(808-1132); purchased Invitrogen (Carlsbad, USA) #4288
- Sequence (O60674 808-1132): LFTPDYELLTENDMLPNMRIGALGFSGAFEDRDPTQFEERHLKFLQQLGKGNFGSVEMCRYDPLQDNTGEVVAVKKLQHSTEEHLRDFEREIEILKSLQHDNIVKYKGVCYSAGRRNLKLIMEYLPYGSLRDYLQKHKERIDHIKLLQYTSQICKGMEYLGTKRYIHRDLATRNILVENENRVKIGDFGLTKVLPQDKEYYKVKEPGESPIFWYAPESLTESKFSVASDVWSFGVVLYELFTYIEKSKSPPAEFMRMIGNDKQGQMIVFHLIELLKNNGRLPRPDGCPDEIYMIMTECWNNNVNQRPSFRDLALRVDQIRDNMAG
- Procedure Summary: EPK JAK-family kinases profiling assay (Caliper mobility shift), JAK2
- Type: biochemical
- Run Parameters: ATP 20 μM, 1.8 nM kinase
- Procedure: All four kinases of the JAK-family kinases were used as purified recombinant GST-fusion proteins, containing the active kinase domains. GST-JAK1(866-1154), GST-JAK3(811-1124), and GST-TYK2(888-1187) were expressed and purified by affinity chromatography at the EPK biology unit. […] The terminated reactions were transferred to the Caliper LabChip 3000 reader and the turnover of each reaction was measured by determining the substrate/product ratio. […]
Readout Type: IC50 (nM)

# count of solved cases: 2
{"Compound": "O=C(c1ccc(-c2cccc3ncc(-c4ccc(OCCCN5CCOCC5)cc4)nc23)cc1F)N1CCOCC1", "Target Of Assay": "GST-JAK2(808-1132) (Homo sapiens, UniProt O60674)", "IC50 (nM)": 34}
{"Compound": "CCN1CCN(c2ccc(-c3cnc4cccc(-c5cc(F)c(CN6CCOCC6)c(F)c5)c4n3)cc2C)CC1", "Target Of Assay": "GST-JAK2(808-1132) (Homo sapiens, UniProt O60674)", "IC50 (nM)": 30.5}

I. COc1cc(-c2cnc3cccc(-c4ccc(CS(C)(=O)=O)cc4)c3n2)ccc1OCCN1CCOCC1
II. Cc1cc(-c2cnc3cccc(-c4cc(F)c(CN5CCS(=O)(=O)CC5)c(F)c4)c3n2)ccc1C(=O)N1CCN(C)CC1
III. CCN1CCN(Cc2ccc(-c3cnc4cccc(-c5ccc(CN6CCOCC6)c(F)c5)c4n3)cc2C)CC1
IV. COCCOc1ccc(-c2cnc3cccc(-c4ccc(CC(=O)N5CCOCC5)c(F)c4)c3n2)cc1OC
Ask: Sequence the entries by IC50, beginning with the highest number. Please, when replying, give the labels in the order that was requested.
Reply: IV, III, I, II
(IV: 38 nM, III: 22 nM, I: 14 nM, II: 6.55 nM)

1. Fc1cc(-c2cccc3ncc(-c4cnn(CC5CCNCC5)c4)nc23)cc(F)c1CN1CCOCC1
2. Cc1cc(CN2CCS(=O)(=O)CC2)ccc1-c1cccc2ncc(-c3cnn(C4CCNCC4)c3)nc12
3. COC(=O)N1CCC(n2cc(-c3cnc4cccc(-c5cc(F)c(CN6CCOCC6)c(F)c5)c4n3)cn2)CC1
Ask: Task for the reader: rank each entry by its IC50, from the minimum upward. Enter labels, ranked according to the request.
Reply: 3, 1, 2

I. Fc1cc(-c2cccc3ncc(-c4cnn(C5CCCNC5)c4)nc23)cc(F)c1CN1CCOCC1 (racemic)
II. COc1cc(-c2cnc3cccc(-c4ccc(C(=O)N5CCOCC5)c(F)c4)c3n2)cc(OC)c1OC
Ask: For the two items I and II , which reports the higher IC50 value? Identify your pick by its label.
Reply: II
(II: 13 nM, I: 6.4 nM)
